System: E. coli
measurementNotes: Biofilm growth assay (spreading biofilm on semi-solid agar)
Assay type: cell-based
Parameters: unit: ug/mL
conditionLabel: Table 6; inhibitory concentration in the biofilm growth assay; n = number of isolates tested
Would you kindly list E. coli (n=10) for each of these molecules?
Give bare numbers.

Consider the reported E. coli (n=10) for these molecules:
So, CC1(C)CC[C@]2(C(=O)O)CC[C@]3(C)C(=CCC4[C@@]5(C)Cc6c(n[nH]c6N)C(C)(C)C5CC[C@]43C)C2C1 (stereo in doubt) [Compound 1] ? Its E. coli (n=10) was 1

So, CC(C)(O/N=C(\C(=O)N[C@@H]1C(=O)N2C(C(=O)[O-])=C(C[n+]3ccccc3)CS[C@H]12)c1csc(N)n1)C(=O)O [Ceftazidime, ceftazidime, reference compound] ? Its E. coli (n=10) was 0.25

So, CC1(C)CC[C@]2(C(=O)O)CC[C@]3(C)C(=CC[C@@H]4[C@@]5(C)CC[C@H](O)C(C)(C)[C@@H]5CC[C@]43C)[C@@H]2C1 [Oleanolic acid, reference compound] ? Its E. coli (n=10) was 16

Next:
So, NC[C@H]1O[C@H](O[C@H]2[C@H](O)[C@@H](O[C@H]3O[C@H](CO)[C@@H](O)[C@H](N)[C@H]3O)[C@H](N)C[C@@H]2N)[C@H](N)C[C@@H]1O [Tobramycin, tobramcyin, reference compound] ? Its E. coli (n=10) was 16

----------
Test system: P. aeruginosa
measurementNotes: Biofilm growth assay (spreading biofilm on semi-solid agar)
Format: cell-based
conditionLabel: Pseudomonas aeruginosa; Table 4; concentration that reduces the area of the spreading biofilm by >= 85%; read-out: P. aeruginosa
valueType: IC85 (µg/mL)
Answers are plain numbers, in µg/mL.

Consider the reported IC85 for these compounds:
So, CC1(C)CC[C@]2(C(=O)Nc3cc(N)n[nH]3)CC[C@]3(C)C(=CCC4[C@@]5(C)Cc6c(n[nH]c6N)C(C)(C)C5CC[C@]43C)C2C1 (stereo partly drawn) [Compound 69] ? Its IC85 was 1

So, CNCCc1c([C@]23CCC(C)(C)CC2C2=CCC4[C@@]5(C)Cc6c(n[nH]c6N)C(C)(C)C5CC[C@@]4(C)[C@]2(C)CC3)n[nH]c1O (stereo partly drawn) [Compound 86] ? Its IC85 was 0.5

So, CC1(C)CC[C@]2(c3n[nH]c(O)c3CCN)CC[C@]3(C)C(=CCC4[C@@]5(C)Cc6c(n[nH]c6N)C(C)(C)C5CC[C@]43C)C2C1 (stereo partly drawn) [Compound 84] ? Its IC85 was 0.125

Quick one: give me IC85 for each item below, same order please.
1. CN(C)C[C@]12CCC(C)(C)CC1C1=CCC3[C@@]4(C)Cc5c(n[nH]c5N)C(C)(C)C4CC[C@@]3(C)[C@]1(C)CC2 (stereo partly drawn) [Compound 64]
2. CC1(C)CC[C@]2(C(=O)n3ccnc3N)CC[C@]3(C)C(=CCC4[C@@]5(C)Cc6c(n[nH]c6N)C(C)(C)C5CC[C@]43C)C2C1 (stereo partly drawn) [Compound 73]
3. CC1(C)CC[C@]2(c3nnc(S)[nH]3)CC[C@]3(C)C(=CCC4[C@@]5(C)Cc6c(n[nH]c6N)C(C)(C)C5CC[C@]43C)C2C1 (stereo partly drawn) [Compound 75]
4. CC1(C)CC[C@]2(C(N)=O)CC[C@]3(C)C(=CCC4[C@@]5(C)Cc6c(n[nH]c6N)C(C)(C)C5CC[C@]43C)C2C1 (stereo partly drawn) [Compound 62]
5. CC1(C)CC[C@]2(C(=O)Sc3nnc(N)[nH]3)CC[C@]3(C)C(=CCC4[C@@]5(C)Cc6c(n[nH]c6N)C(C)(C)C5CC[C@]43C)C2C1 (stereo partly drawn) [Compound 70]
6. CC1(C)CC[C@]2(C(=O)Nc3cc(O)[nH]n3)CC[C@]3(C)C(=CCC4[C@@]5(C)Cc6c(n[nH]c6N)C(C)(C)C5CC[C@]43C)C2C1 (stereo partly drawn) [Compound 66]

[reply]
[0.5, 1, 0.5, 1, 0.5, 0.25]

Quick one: give me IC85 for each item below, same order please.
1. CC1(C)CC[C@]2(C(=O)Nc3nnc(S)s3)CC[C@]3(C)C(=CCC4[C@@]5(C)Cc6c(n[nH]c6N)C(C)(C)C5CC[C@]43C)C2C1 (stereo partly drawn) [Compound 74]
2. Cn1nc([C@]23CCC(C)(C)C[C@H]2C2=CCC4[C@@]5(C)Cc6c(n[nH]c6N)C(C)(C)[C@@H]5CC[C@@]4(C)[C@]2(C)CC3)cc1N (stereo partly drawn) [Compound 72]

[reply]
1
1

----------
Test system: Burkholderia cepacia
measurementNotes: Biofilm growth assay, multiple isolates
Assay type: cell-based
conditionLabel: Table 6; inhibitory concentration in the biofilm growth assay; n = number of isolates tested
valueType: inhibitory concentration

Consider the reported inhibitory concentration for these compounds:
So, NC[C@H]1O[C@H](O[C@H]2[C@H](O)[C@@H](O[C@H]3O[C@H](CO)[C@@H](O)[C@H](N)[C@H]3O)[C@H](N)C[C@@H]2N)[C@H](N)C[C@@H]1O [Tobramycin, tobramcyin, reference compound] ? Its inhibitory concentration was > 64

So, CC(C)(O/N=C(\C(=O)N[C@@H]1C(=O)N2C(C(=O)[O-])=C(C[n+]3ccccc3)CS[C@H]12)c1csc(N)n1)C(=O)O [Ceftazidime, ceftazidime, reference compound] ? Its inhibitory concentration was > 8

Next:
So, CC[C@H]1OC(=O)[C@H](C)[C@@H](O[C@H]2C[C@@](C)(OC)[C@@H](O)[C@H](C)O2)[C@H](C)[C@@H](O[C@@H]2O[C@H](C)C[C@H](N(C)C)[C@H]2O)[C@](C)(O)C[C@@H](C)CN(C)[C@H](C)[C@@H](O)[C@]1(C)O [Azithromycin, azithromycin] ? Its inhibitory concentration was > 16
